Experiment: Inhibition of 20S proteasome (unknown origin) using Suc-LLVY-AMC as substrate preincubated for 1 hr followed by substrate addition incubated for 1 hr by fluorescence analysis
Set-up: species or system Homo sapiens
attribute.measured: IC50
State the value with its unit after it.

chemical_structure=CC(C)C[C@@H](CS(=O)(=O)F)NC(=O)[C@H](CC(C)C)NC(=O)[C@H](CC(C)C)NC(=O)[C@H](CC(C)C)NC(=O)OCc1ccccc1 attribute_measured=IC50 test_result="17.8 nM"
chemical_structure=CC(C)C[C@@H](/C=C/S(=O)(=O)F)NC(=O)[C@H](CC(C)C)NC(=O)[C@H](CC(C)C)NC(=O)OCc1ccccc1 attribute_measured=IC50 test_result="218 nM"
chemical_structure=CC(C)C[C@@H](CS(=O)(=O)F)NC(=O)[C@H](CC(C)C)NC(=O)[C@H](CC(C)C)NC(=O)OCc1ccccc1 attribute_measured=IC50 test_result="89.1 nM"

Now take the following molecule into account.
Suppose we examine the molecule CC(C)C[C@@H](/C=C/S(=O)(=O)F)NC(=O)[C@H](CC(C)C)NC(=O)[C@H](CC(C)C)NC(=O)[C@H](CC(C)C)NC(=O)OCc1ccccc1 ; what IC50 value has been reported?
99 nM

Source listed as ChEMBL document CHEMBL3813610.
